# credit: patent US5439919A

I'd appreciate it if you could supply Kb values for the items below.
biological target: muscarinic receptor (Cavia porcellus, UniProt H0W1Z3); construct: from tissue; host or cells: isolated ileum of male guinea pig; assay: Anticholinergic action on the specimen of isolated guinea pig ileum; details: affinity to muscarinic receptor, concentration converted from pA2 value obtained from Schild's plot, acetylcholine contraction
Sequence (H0W1Z3 1-590): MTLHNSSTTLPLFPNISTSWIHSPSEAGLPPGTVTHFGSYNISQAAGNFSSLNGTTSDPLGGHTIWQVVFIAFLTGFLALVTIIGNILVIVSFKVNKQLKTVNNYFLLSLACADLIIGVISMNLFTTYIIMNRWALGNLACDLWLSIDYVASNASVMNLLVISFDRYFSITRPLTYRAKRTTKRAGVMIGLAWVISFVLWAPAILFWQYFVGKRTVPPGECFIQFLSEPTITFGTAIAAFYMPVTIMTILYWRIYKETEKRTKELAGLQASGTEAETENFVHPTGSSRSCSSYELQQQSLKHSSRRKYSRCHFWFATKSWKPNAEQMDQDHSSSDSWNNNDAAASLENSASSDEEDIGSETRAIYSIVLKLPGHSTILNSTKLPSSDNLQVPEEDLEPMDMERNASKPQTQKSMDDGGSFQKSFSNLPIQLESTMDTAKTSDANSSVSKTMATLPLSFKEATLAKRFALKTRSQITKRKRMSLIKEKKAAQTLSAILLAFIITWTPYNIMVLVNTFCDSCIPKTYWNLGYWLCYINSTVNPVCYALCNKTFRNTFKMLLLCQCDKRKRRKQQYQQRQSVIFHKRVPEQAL
Where a name gives a salt, the structure may show the parent alone.
Write the value in µM as a bare number.

Short answer for CCN(CC)C(=O)C(NCCNC(C)C)c1ccccc1 (stereo not drawn) : Kb was 2

Short answer for CCN(CC)CCNC(C(=O)NC(C)(C)C)c1ccccc1 (stereo not drawn) : Kb was 3.2

Short answer for CCN(CC)CCNC(C(=O)N(C)CCc1ccc(OC)c(OC)c1)c1ccccc1 (stereo not drawn) : Kb was 6.3

Short answer for CCN(CC)C(=O)C(NCCN(C(C)C)C(C)C)c1ccccc1 (stereo not drawn) : Kb was 1.3

Short answer for CCN(CC)CCN(C)C(C(=O)NC(C)(C)C)c1ccccc1 (stereo not drawn) : Kb was 5

Short answer for CCN(CC)C(=O)C(NCCNC(C)(C)C)c1ccccc1 (stereo not drawn) : Kb was 16

Short answer for CC(CC(c1ccccc1)c1ccccc1)NC(C)(C)C (stereo not drawn) [Terodiline hydrochloride, reference compound] : Kb was 0.1

Short answer for CCN(CC)CCNC(C(=O)N(CC)CC)c1ccccc1 (stereo not drawn) : Kb was 2.5

Short answer for CC(C)(C)NCCNC(C(=O)NC1CCCCC1)c1ccccc1 (stereo not drawn) : Kb was 0.79
